biological target: human PD-1 stably expressed on Jurkat/IL-2 reporter cells (Jurkat/PD-1 cells) (human, UniProt Q15116 25-288); assay: flow cytometry, Jurkat/PD-1 cells
Sequence (Q15116 25-288): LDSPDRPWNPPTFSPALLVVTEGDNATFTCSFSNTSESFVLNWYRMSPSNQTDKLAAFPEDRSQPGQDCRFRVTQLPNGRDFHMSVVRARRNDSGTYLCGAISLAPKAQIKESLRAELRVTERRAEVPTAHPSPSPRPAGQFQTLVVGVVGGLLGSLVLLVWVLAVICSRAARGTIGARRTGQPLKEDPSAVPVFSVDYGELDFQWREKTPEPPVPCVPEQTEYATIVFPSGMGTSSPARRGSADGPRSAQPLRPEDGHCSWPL
readout kind: Fold Increase over WT PD-L1 ECD-Fc (fold)
Use fold as the unit, but write only the number.

Below, each entry is followed by its recorded Fold Increase over WT PD-L1 ECD-Fc result.
variant PD-L1 ECD-Fc N45D, F173I, S177C (Fc fusion, not shown: a dimerising Fc or GST) FTVTVPKDLYVVEYGSNMTIECKFPVEKQLDLAALIVYWEMEDKDIIQFVHGEEDLKVQHSSYRQRARLLKDQLSLGNAALQITDVKLQDAGVYRCMISYGGADYKRITVKVNAPYNKINQRILVVDPVTSEHELTCQAEGYPKAEVIWTSSDHQVLSGKTTTTNSKREEKLINVTCTLRINTTTNEIFYCTFRRLDPEENHTAELVIPELPLAHPPNER    0.4
variant PD-L1 ECD-Fc N45D, R68L, F173L, D197G, P198S (Fc fusion, not shown: a dimerising Fc or GST) FTVTVPKDLYVVEYGSNMTIECKFPVEKQLDLAALIVYWEMEDKDIIQFVHGEEDLKVQHSSYRQRALLLKDQLSLGNAALQITDVKLQDAGVYRCMISYGGADYKRITVKVNAPYNKINQRILVVDPVTSEHELTCQAEGYPKAEVIWTSSDHQVLSGKTTTTNSKREEKLLNVTSTLRINTTTNEIFYCTFRRLGSEENHTAELVIPELPLAHPPNER    11.8
variant PD-L1 ECD-Fc N45D, K111T, R195G (Fc fusion, not shown: a dimerising Fc or GST) FTVTVPKDLYVVEYGSNMTIECKFPVEKQLDLAALIVYWEMEDKDIIQFVHGEEDLKVQHSSYRQRARLLKDQLSLGNAALQITDVKLQDAGVYRCMISYGGADYKRITVTVNAPYNKINQRILVVDPVTSEHELTCQAEGYPKAEVIWTSSDHQVLSGKTTTTNSKREEKLFNVTSTLRINTTTNEIFYCTFRGLDPEENHTAELVIPELPLAHPPNER    13.1

Lab note: next binder to report on.
Asked: Entry variant PD-L1 ECD-Fc N45D, G102D, R194W, R195G (Fc fusion, not shown: a dimerising Fc or GST) FTVTVPKDLYVVEYGSNMTIECKFPVEKQLDLAALIVYWEMEDKDIIQFVHGEEDLKVQHSSYRQRARLLKDQLSLGNAALQITDVKLQDAGVYRCMISYGDADYKRITVKVNAPYNKINQRILVVDPVTSEHELTCQAEGYPKAEVIWTSSDHQVLSGKTTTTNSKREEKLFNVTSTLRINTTTNEIFYCTFWGLDPEENHTAELVIPELPLAHPPNER has what Fold Increase over WT PD-L1 ECD-Fc?
Given back: 2.7
